Target: SUV39H2 (Homo sapiens (Human), UniProt Q9H5I1)
Sequence (Q9H5I1 whole entry): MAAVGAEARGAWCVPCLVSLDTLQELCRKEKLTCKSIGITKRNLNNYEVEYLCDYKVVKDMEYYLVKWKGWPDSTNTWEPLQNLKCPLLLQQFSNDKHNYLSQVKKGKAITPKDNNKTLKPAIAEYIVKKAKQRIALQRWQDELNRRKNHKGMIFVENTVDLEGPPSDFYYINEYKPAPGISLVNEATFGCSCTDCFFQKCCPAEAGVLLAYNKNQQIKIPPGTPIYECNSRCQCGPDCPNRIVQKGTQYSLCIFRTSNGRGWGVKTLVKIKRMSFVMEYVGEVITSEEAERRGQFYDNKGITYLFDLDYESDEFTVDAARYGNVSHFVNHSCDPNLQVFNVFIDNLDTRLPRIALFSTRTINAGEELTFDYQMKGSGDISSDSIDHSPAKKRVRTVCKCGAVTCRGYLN
Experiment: biochemical
Assay type: biochemical
Conditions: 3H-SAM 100 nM, H3 Histone Peptide 350 nM, room temperature 3 hours
Counter-ions that a name gives are not always drawn.
Labelling: IC50 reported below 0.03 µM becomes fulfilled; at or above becomes not fulfilled.

Solved entries:
COc1cc(OC)c(-c2cn3ccc(N[C@H]4CC[C@@H](N(C)Cc5ccccc5F)CC4)cc3n2)cc1Cl [Example 347, bis(2,2,2-trifluoroacetate)] = fulfilled
COc1cc(OC)c(-c2cn3ccc(NC4CCN(Cc5csc([N+](=O)[O-])c5)CC4)cc3n2)cc1Cl = not fulfilled
COc1cc(OC)c(-c2cn3ccc(N[C@H]4CC[C@@H](NCc5ccc(N(C)C)cc5)CC4)cc3n2)cc1Cl [Example 418, bis(2,2,2-trifluoroacetate)] = not fulfilled
COc1cc(OC)c(-c2cn3ccc(N4CCN(c5nccc(N6CCC(=O)CC6)n5)CC4)cc3n2)cc1Cl = not fulfilled
COc1cc(OC)c(-c2cn3ccc(N4CCC(C(=O)NC5CCCCC5)CC4)cc3n2)cc1Cl = fulfilled
COc1cc(OC)c(-c2cn3ccc(N4CCC(C(=O)NC5CCN(C(=O)OC(C)(C)C)CC5)CC4)cc3n2)cc1Cl = fulfilled
COc1ccc(N2CCN(c3ccn4cc(-c5cc(Cl)c(OC)cc5OC)nc4c3)CC2)nc1 = not fulfilled
COc1cc(OC)c(-c2cn3ccc(N4CCN(c5cnc(N6CCC(N)CC6)nc5)CC4)cc3n2)cc1Cl = fulfilled
COc1cc(OC)c(-c2cn3ccc(N4CCN(c5ccnc(NCCO)n5)CC4)cc3n2)cc1Cl = fulfilled
COc1cc(OC)c(-c2cn3ccc(N4CCN(c5ncc([N+](=O)[O-])cc5C#N)CC4)cc3n2)cc1Cl = fulfilled

QUERY: Is IC50 strictly under 0.03 µM for the entry COc1cc(OC)c(-c2cn3ccc(N[C@H]4CC[C@@H](NCC5CCN(C(=O)OC(C)(C)C)CC5)CC4)cc3n2)cc1Cl ?
RESULT: fulfilled

QUERY: Is IC50 strictly under 0.03 µM for the entry COCC(=O)N1CCN(c2ccn3cc(-c4cc(Cl)c(OC)cc4OC)nc3c2)CC1C (centres unmarked) ?
RESULT: fulfilled

QUERY: Is IC50 strictly under 0.03 µM for the entry COc1cc(OC)c(-c2cn3ccc(N4CCN(c5nccc(N6CCN(C(=O)Cc7ccccc7)CC6)n5)CC4)cc3n2)cc1Cl [Example 382, dihydrochloride] ?
RESULT: not fulfilled

QUERY: Is IC50 strictly under 0.03 µM for the entry COc1cc(OC)c(-c2cn3ccc(N[C@H]4C[C@H]5CC[C@@H](C4)N5CC4CCCC4)cc3n2)cc1Cl ?
RESULT: fulfilled

----------
Target: SUV39H2 (Homo sapiens (Human), UniProt Q9H5I1)
Settings: read-out: IC50 (μM) Suv 39H2 assay; enzyme assay
attribute_measured: IC50 (µM)
Answers are plain numbers, in µM.

Solved entries:
COc1cc(OC)c(-c2cn3cc(C4=CCNCC4)c(N4CCOCC4)cc3n2)cc1Cl = 0.0105
COc1cc(OC)c(-c2cn3ccc(N[C@H]4CC[C@H](CN5CCN(S(C)(=O)=O)CC5)CC4)cc3n2)cc1Cl = 0.028
COc1cc(OC)c(-c2cn3ccc(N4CCN(CCN5CCN(C(=O)OC(C)(C)C)CC5)CC4)cc3n2)cc1Cl = 0.0166
COc1cc(OC)c(-c2cn3ccc(N4CCC(NS(=O)(=O)CC(C)C)CC4)cc3n2)cc1Cl = 0.0127

Dear reader, for each entry below, please note its IC50.
1. COc1cc(OC)c(-c2cn3ccc(N)cc3n2)cc1Cl
2. COc1cc(OC)c(-c2cn3ccc(N4CCN(CCN5CCCC5)CC4)cc3n2)cc1Cl
3. COc1cc(OC)c(-c2cn3ccc(N4CCC(NS(=O)(=O)Cc5ccccc5)CC4)cc3n2)cc1Cl
4. COc1cc(OC)c(-c2cn3ccc(-c4ccc(C(=O)NCCCN)cc4)cc3n2)cc1Cl

RESULT:
1. 0.00827
2. 0.0044
3. 0.0263
4. 0.036

----------
Can you tell me log10 IC50 for the items I'm about to list?
System: PC14
Experiment: Cell-based assay, anti-proliferative activity (Cell Counting Kit-8, 72 hours)
Settings: Homo sapiens, PC-14; PC14 cells, 72 hours, Cell Counting Kit-8; read-out: IC50 (μM) PC14
Annotation: log10 of IC50, µM basis.

Solved entries:
CC[C@@H](C)[C@H](NC(=O)OC(C)(C)C)C(=O)Nc1ccn2cc(-c3cc(Cl)c(OC)cc3OC)nc2c1 [Example 257] = 0.48
COc1cc(OCCCN(C)C)c(-c2cn3ccc(N4CCN(S(=O)(=O)C(C)C)CC4)nc3n2)cc1Cl [Example 226] = 0.74
COc1cc(OC)c(-c2cn3ccc(N4CCC(O)CC4)cc3n2)cc1Cl [Example 231] = 0.59
COc1cc(OC)c(-c2cn3ccc(N4CC[C@H](NCc5ccc(C(F)(F)F)cc5)C4)cc3n2)cc1Cl [Example 303] = -0.02
COc1cc(OC)c(-c2cn3ccc(-c4ccc(C(=O)NCC5CCCNC5)cc4)cc3n2)cc1Cl (stereo not shown) [Example 251] = 0.73

Dear reader, for each entry below, please note its log10 IC50.
1. COc1cc(C)c(Cl)cc1-c1cn2ccc(N3CCOCC3)cc2n1 [Example 230]
2. COc1cc(OC)c(-c2cn3ccc(-c4ccc(C(=O)NCC5CCNCC5)cc4)cc3n2)cc1Cl [Example 267]
3. COC(=O)CCCN1CCN(c2ccn3cc(-c4cc(Cl)c(OC)cc4OC)nc3c2)CC1 [Example 237]
4. COc1cc(OC)c(-c2cn3ccc(N4CCN(c5ccnc(N6CCCCC6)n5)CC4)cc3n2)cc1Cl [Example 295]
5. COc1cc(OC)c(-c2cn3cc(Br)c(N4CCNCC4)nc3n2)cc1Cl [Example 220]
6. COc1cc(OC)c(-c2cn3ccc(N4CCN(c5ccnc(N6CCOCC6)n5)CC4)cc3n2)cc1Cl [Example 294]

RESULT:
[0.20, 1.00, 1.00, -0.03, 0.38, 0.00]

Dear reader, for each entry below, please note its log10 IC50.
1. COc1cc(OC)c(-c2cn3ccc(N4CCN(C5CCCC5)CC4)cc3n2)cc1Cl [Example 239]
2. COc1cc(OC)c(-c2cn3ccc(N4CCNC(CO)C4)cc3n2)cc1Cl (stereo not shown) [Example 235]
3. CCc1cc(OC)c(Cl)cc1-c1cn2ccc(N3CCN(S(=O)(=O)C4CC4)CC3)cc2n1 [Example 261]
4. COc1cc(OC)c(-c2cn3ccc(N4CCN(c5cccnc5)CC4)cc3n2)cc1Cl [Example 296]
5. COc1cc(OC)c(-c2cn3ccc(NC(=O)C(N)CCCCN)cc3n2)cc1Cl (stereo in doubt) [Example 247]

RESULT:
[0.26, 0.75, -1.23, -0.19, 0.76]

----------
Test system: PC14
Test: Cell-based assay, anti-proliferative activity (Cell Counting Kit-8, 72 hours)
Details: Homo sapiens, PC-14; PC14 cells, 72 hours, Cell Counting Kit-8; read-out: IC50 (μM) PC14
Can you tell me IC50 for the items I'm about to list?
Answers are plain numbers, in µM.

COc1cc(OCCCN(C)C)c(-c2cn3ccc(N4CCCN(S(=O)(=O)N(C)C)CC4)cc3n2)cc1Cl [Example 216] = 1.6
COc1cc(OC)c(-c2cn3ccc(OC4CCN(c5ccnc(N)n5)CC4)cc3n2)cc1Cl [Example 284] = 0.98
COc1cc(OC)c(-c2cn3ccc(NC(=O)[C@H](C)NC(=O)OC(C)(C)C)cc3n2)cc1Cl [Example 253] = 6.9

Dear reader, for each entry below, please note its IC50.
1. COc1cc(OC)c(-c2cn3ccc(N4CCN(c5ccccc5)CC4)cc3n2)cc1Cl [Example 282]
2. COc1cc(OC)c(-c2cn3ccc(-c4ccc(C(=O)NCCNCCNC(=O)OC(C)(C)C)cc4)cc3n2)cc1Cl [Example 269]
3. COc1cc(C)c(-c2cn3ccc(N4CCN(S(=O)(=O)C5CC5)C(CO)C4)cc3n2)cc1Cl (stereo not shown) [Example 262]
4. COc1cc(OC)c(-c2cn3ccc(N4CC[C@H](NCc5ccccc5)C4)cc3n2)cc1Cl [Example 301]
5. COc1cc(OCCCN(C)C)c(-c2cn3ccc(N4CCN(S(=O)(=O)C5CCCC5)CC4)nc3n2)cc1Cl [Example 227]
6. COc1cc(OC)c(-c2cn3ccc(-c4ccc(C(=O)NCC5CCCN5)cc4)cc3n2)cc1Cl (stereo not shown) [Example 248]
7. COc1cc(OC)c(-c2cn3ccc(-c4ccc(NCc5ncc[nH]5)cc4)cc3n2)cc1Cl [Example 270]

RESULT:
1. 0.96
2. 0.94
3. 1.1
4. 1.5
5. 5.4
6. 2.6
7. 0.45

Dear reader, for each entry below, please note its IC50.
1. COc1cc(OC)c(-c2cn3ccc(N4CC[C@H](NCc5cccnc5)C4)cc3n2)cc1Cl [Example 300]
2. COc1cc(OC)c(-c2cn3ccc(N[C@H]4CC[C@H](NCc5ccccc5)CC4)cc3n2)cc1Cl [Example 291]
3. CCOP(=O)(CCN1CCN(c2ccn3cc(-c4cc(Cl)c(OC)cc4OCCCN(C)C)nc3c2)CC1)OCC [Example 219]
4. COc1cc(OC)c(-c2cn3ccc(N4CCN(C(=O)OC(C)(C)C)CC4)cc3n2)cc1Cl [Example 232]
5. COc1cc(OC)c(-c2cn3ccc(N4CCN(S(=O)(=O)C5CC5)C(COCCN(C)C)C4)cc3n2)cc1Cl (stereo not shown) [Example 245]
6. COc1cc(OC)c(-c2cn3ccc(N4CC[C@H](NCc5ccc(F)cc5)C4)cc3n2)cc1Cl [Example 302]
7. COc1cc(OC)c(-c2cn3ccc(N4CCN(C(=O)C5CC5)CC4)nc3n2)cc1Cl [Example 242]
8. COc1cc(OCSC)c(-c2cn3ccc(N4CCN(S(=O)(=O)C5CC5)CC4)cc3n2)cc1Cl [Example 255]

RESULT:
1: 3.5; 2: 0.71; 3: 7.6; 4: 0.73; 5: 5.1; 6: 1.4; 7: 6.3; 8: 1.5

Dear reader, for each entry below, please note its IC50.
1. COc1cc(OC)c(-c2cn3ccc(-c4ccc(C(=O)NCCCN)cc4)cc3n2)cc1Cl [Example 265]
2. COc1cc(OC)c(-c2cn3ccc(N4CCN(C(=O)C5CCCC5)CC4)cc3n2)cc1Cl [Example 241]
3. COC(=O)N[C@H]1CC[C@H](Nc2ccn3cc(-c4cc(Cl)c(OC)cc4OC)nc3c2)CC1 [Example 277]
4. COc1cc(OC)c(-c2cn3ccc(N4CCN(C(=O)C5CCCC5)CC4)nc3n2)cc1Cl [Example 243]
5. COc1cc(OC)c(-c2cn3ccc(-c4ccc(C(=O)N5CCNCC5)cc4)cc3n2)cc1Cl [Example 254]
6. COc1cc(OC)c(-c2cn3cc(Br)c(N4CCNCC4)cc3n2)cc1Cl [Example 217]

RESULT:
4.2
1.6
0.93
3.3
0.99
3.4
